- Tested on: P. falciparum 3D7 growth, pLDH absorbance
- runDescription: blood-stage malaria parasite growth potency – strain 3D7, dose response (AID 2305)
reportedMetric: pIC50
// pIC50: -log10(molar conc.)

Some compounds with known pIC50 results, for comparison:
compound | endpointResult
Cc1cccc2[nH]c(-c3cccc(-c4ccc(NC(=O)Cc5cnc[nH]5)cc4)c3)nc12 | 6.16
CCCCCCN1CCC(NCc2ccc(OCCN3CCCC3)cc2)CC1 | 6.14

Look at this compound and give its reported pIC50. `Cc1cccc(C(=O)Nc2ccnc(N3CCC(N(C)Cc4cccc(O)c4)CC3)c2)c1`
6.04

Look at this compound and give its reported pIC50. `COc1ccc(CNCC(C)(C)c2nc(-c3ccc(Cl)c(O)c3)c(-c3ccncc3)[nH]2)cc1`
6.44

Look at this compound and give its reported pIC50. `CCc1ccccc1N1CCN(CCCC(=O)c2ccc(NC(=O)c3cc(Cl)cc(Cl)c3)cc2)CC1`
6.54
